molecular target: T1, human LIGHT (TNFSF14), full length, membrane-bound (214E allele) (human, UniProt O43557 1-240); assay: soluble LIGHT 74-240 KD over membrane LIGHT KD
T1 construct: also called membrane LIGHT; human membrane LIGHT
T1 sequence (O43557 whole entry K214E): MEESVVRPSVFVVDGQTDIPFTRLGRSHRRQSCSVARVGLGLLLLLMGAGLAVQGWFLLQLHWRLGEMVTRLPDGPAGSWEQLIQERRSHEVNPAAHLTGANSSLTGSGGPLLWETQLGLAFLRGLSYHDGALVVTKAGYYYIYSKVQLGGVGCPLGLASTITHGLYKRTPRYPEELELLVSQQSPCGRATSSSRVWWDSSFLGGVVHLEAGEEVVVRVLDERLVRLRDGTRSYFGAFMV
QUANTITY_KIND: Membrane:soluble LIGHT affinity ratio

{"columns": ["BINDER", "QUANTITY_KIND", "NUMERIC_READOUT"],
 "data": [
  ["2B11 (antibody, human IgG4, V domains shown, chimeric human IgG4 (S-to-P, L-to-E at 248), human CL; also called Parental 2B11) VH: EVQLVESGAELVRPGVSVKISCKGSGYTFTDYAIHWVKQSHAKSLEWIGVISTYYGDASYNQKFKGKATMTVDKSSSTAYMELARLTSEDSAIYYCARSRGEYGNYDAMDYWGQGTSVTVSS VL: DIVLTQSPASLAVSLGQRATISCRASESVDSYGNSFMHWYQQKPGQPPKLLIYRASNLESGIPARFSGSGSRTDFTLTINPVEADDVATYYCQQSNEDPYTFGGGTKLEIK", "Membrane:soluble LIGHT affinity ratio", 47.1]
]}
